Each recorded value in this set is attributed to paper PMC5540273.

Test system: JAK1(JH2domain-pseudokinase)
Settings: concentration: 1 μM, replicates: in singlicate; n = 1
Assign %Inh to each entry below.
State just the number; it will be interpreted in %.

State the measured %Inh (JAK1(JH2domain-pseudokinase)) of Cc1cccc(Nc2nc(N[C@H]3CCNC3)ncc2C(N)=O)c1.Cl
88

Specify the recorded %Inh for COc1cc2c(cc1OCCN1CCNCC1)ncc1c3ccc(C#N)cc3[nH]c21 , system: JAK1(JH2domain-pseudokinase).
45

Give JAK1(JH2domain-pseudokinase) %Inh for the following compound: CN(C)S(=O)(=O)c1cc(-c2ccc3nccc(-c4cccc(S(N)(=O)=O)c4)c3c2)cnc1N
12

State, for JAK1(JH2domain-pseudokinase), measured %Inh of the compound listed here: O=C(NC1CCN(c2ccnc(Nc3ccc(F)cc3)n2)C1)c1cc2ccccc2s1 (stereo not shown)
0

Please look at Cc1ccc(F)c(C(=O)Nc2cccc(-c3nn4ccccc4c3-c3ccnc(Nc4cccc(F)c4)n3)c2)c1F and tell me its recorded %Inh on JAK1(JH2domain-pseudokinase).
0

# return %Inh of C[C@@H]1CC[C@@H](C(=O)Nc2ccccc2)CN1c1cc(-c2ccc3c(N)n[nH]c3c2)nc(N)n1 (system: JAK1(JH2domain-pseudokinase))
2

System JAK1(JH2domain-pseudokinase). Read-out %Inh. Item Nc1ncc(-c2cccnc2)c2scc(-c3ccc4c(c3)CCN4C(=O)Cc3ccccc3)c12 . Report value.
1

Check JAK1(JH2domain-pseudokinase) data and give %Inh for Cl.Cl.NCC(NCc1ccc(-c2ccnc3[nH]ccc23)s1)c1ccccc1 (stereo not shown) .
0

Look up and report %Inh, with JAK1(JH2domain-pseudokinase) as system, for Cc1ccc(S(=O)(=O)Nc2ccc(Nc3nccc(Nc4cccc5[nH]ncc45)n3)cc2)cc1
16

State the measured %Inh (JAK1(JH2domain-pseudokinase)) of CC(=O)N1CCN(c2ccc(Nc3nccc(-c4sc(C(C)C)nc4-c4cccc(NS(=O)(=O)c5cccc(Cl)c5)c4)n3)cn2)CC1
0

Fill in %Inh for CC(C)c1nc(-c2cccc(NS(=O)(=O)c3c(F)cccc3F)c2F)c(-c2ccnc(Nc3ccc(N4CCOCC4)nc3)n2)s1 tested with JAK1(JH2domain-pseudokinase).
0

Print JAK1(JH2domain-pseudokinase) %Inh for COc1cc(Nc2nccc(N3CCC(NC(=O)Nc4cccc(C(C)=O)c4)C3)n2)cc(OC)c1OC (stereo not shown) .
11

Output reported %Inh of the compound COc1ccc(Nc2nccc(N3CCC(NC(=O)Nc4cccc(OC)c4)C3)n2)cc1 (stereo not shown) on JAK1(JH2domain-pseudokinase).
0

Return reported %Inh for target or system JAK1(JH2domain-pseudokinase), item COc1cc(Nc2nccc(-c3c(-c4cccc(NC(=O)c5c(F)cccc5F)c4)nn4ncccc34)n2)cc(OC)c1OC .
0

Fill in: %Inh on JAK1(JH2domain-pseudokinase), entry CC(=O)Nc1nc2cnc(Nc3cc(NC(=O)c4cccc(C5(C#N)CC5)c4Cl)ccc3C)nc2s1
9

Return reported %Inh for target or system JAK1(JH2domain-pseudokinase), item COc1ccc(-c2coc3ccc(-c4nnc(SCc5ccc(OC)c(C(F)(F)F)c5)o4)cc23)cc1 .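 Also: KINOMEscan kinase panel screen.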
32
